Ref: the supplement of paper PMC10567573

B1: LOXL2 (parent)
chain: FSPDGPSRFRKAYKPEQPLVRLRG

Variants of: B1
TEST PROTOCOL: protein stability index of a GFP-peptide fusion (GPS, HEK-293T) (PSI 1-6); higher = more stable;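 note: lentivirally expressed fusions sorted by FACS into six bins by GFP to DsRed ratio, PSI derived from sequencing read proportions per bin multiplied by bin number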
EXPERIMENTAL SETUP: c terminus: a fixed tail appended
PROPERTY NAME: protein stability index

Illustrative cases are given below, each with its answer.
FSPDGPSRFRKAYKTEQPLVRLRG [P15T]
1.41
FSPIGPSRFRKAYKPEQPLVRLRG [D4I]
1.71
FSPDGPSRFRKAYKPEQPLVRLRW [G24W]
2.07

Q. Supply protein stability index value. Item: FSPDGPSRFRKAYPPEQPLVRLRG [K14P]
A. 1.95

Q. Supply protein stability index value. Item: FSPDGPSRFRKADKPEQPLVRLRG [Y13D]
A. 3.33

Q. Supply protein stability index value. Item: FSPDGPSRFRKAYKPEQPLMRLRG [V20M]
A. 2.05

Q. Supply protein stability index value. Item: FSPDGPSRKRKAYKPEQPLVRLRG [F9K]
A. 2.58

Q. Supply protein stability index value. Item: FSPDGPSRFRKAYKPEQPLVRHRG [L22H]
A. 1.52

Q. Supply protein stability index value. Item: FSPDGPSRFRKAYKPEQPIVRLRG [L19I]
A. 2.36

Q. Supply protein stability index value. Item: FSPDGPSRFIKAYKPEQPLVRLRG [R10I]
A. 2.8

Q. Supply protein stability index value. Item: FSPDGPSRFRKAYKHEQPLVRLRG [P15H]
A. 1.7

Q. Supply protein stability index value. Item: FSPDGPSRFRKAYKFEQPLVRLRG [P15F]
A. 1.83
